- System: Staphylococcus epidermidis
- ASSAY_INFO: Antimicrobial activity against Staphylococcus epidermidis ATCC 12228 after 18 hrs by broth microdilution method
- Assay type: functional
- CONDITION_LABEL: ATCC 12228, 18 h
Please respond with reported MIC for every item in the list.
Numbers only, in µM.

Below: 3 molecules and their reported MIC.
MOLECULE | ATTRIBUTE_MEASURED | RESULT
O=C(O)c1cn(C2CC2)c2cc(N3CCN(Cn4nc(-c5cccc(O)c5)n(-c5ccc(Cl)cc5)c4=S)CC3)c(F)cc2c1=O | MIC | 0.093
O=C(O)c1cn(C2CC2)c2cc(N3CCN(Cn4nc(-c5cccc(O)c5)n(Cc5ccc(F)cc5)c4=S)CC3)c(F)cc2c1=O | MIC | 0.19
O=C(O)c1cn(C2CC2)c2cc(N3CCN(Cn4nc(-c5ccc(O)cc5)n(Cc5ccccc5)c4=S)CC3)c(F)cc2c1=O | MIC | 0.19

Fill in MIC for each of the 3 molecules listed.
1. O=C(O)c1cn(C2CC2)c2cc(N3CCN(Cn4nc(-c5cccc(O)c5)n(Cc5ccccc5)c4=S)CC3)c(F)cc2c1=O
2. COc1ccc(Cn2c(-c3ccccc3O)nn(CN3CCN(c4cc5c(cc4F)c(=O)c(C(=O)O)cn5C4CC4)CC3)c2=S)cc1
3. O=C(O)c1cn(C2CC2)c2cc(N3CCN(Cn4nc(-c5ccccc5O)n(-c5ccc(F)cc5)c4=S)CC3)c(F)cc2c1=O

Solution:
0.096
0.046
0.38

For every item below, please supply its MIC.
1. COc1ccc(-n2c(-c3ccccc3O)nn(CN3CCN(c4cc5c(cc4F)c(=O)c(C(=O)O)cn5C4CC4)CC3)c2=S)cc1
2. COc1ccc(-n2c(-c3ccc(O)cc3)nn(CN3CCN(c4cc5c(cc4F)c(=O)c(C(=O)O)cn5C4CC4)CC3)c2=S)cc1

Solution:
1: 0.093; 2: 0.37
